assay system: C-X-C chemokine receptor type 6 (Homo sapiens) (UniProt O00574)
Sequence (O00574 whole entry, looked up): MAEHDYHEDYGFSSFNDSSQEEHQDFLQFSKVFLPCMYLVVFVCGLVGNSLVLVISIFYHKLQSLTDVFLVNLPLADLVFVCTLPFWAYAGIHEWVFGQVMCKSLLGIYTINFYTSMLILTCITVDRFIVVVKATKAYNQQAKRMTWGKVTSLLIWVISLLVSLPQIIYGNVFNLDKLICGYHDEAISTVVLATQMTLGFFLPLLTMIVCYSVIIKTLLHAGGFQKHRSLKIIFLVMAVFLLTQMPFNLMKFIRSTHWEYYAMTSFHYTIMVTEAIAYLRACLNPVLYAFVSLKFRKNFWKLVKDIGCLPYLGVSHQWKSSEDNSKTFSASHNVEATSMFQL
experiment summary: blockade of CXCL16-induced CXCR6 beta-arrestin recruitment – cell-based, luminescence, CHO-K1 PathHunter, 1536-well, primary screen (AID 602244);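 note: antagonist mode with CXCL16 agonist at 10 nM final; 0% = 10 nM CXCL16 with DMSO and 100% = unstimulated wells without agonist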
assay context: at 20 µM, stronger effect = higher value
In all, about 360,000 compounds went through this assay and about 1,300 (0.36%) were called active. The sample as a whole holds a higher share of actives than the screen did.

compound: C/C(=N\NS(=O)(=O)c1ccc(Cl)cc1)c1ccc(NC(=O)c2ccco2)cc1
reading unit: %
inhibition: 0.1
--
compound: COc1ccc(C(O)c2nc(-c3ccc(OC)nc3)cs2)cc1 (stereo unspecified)
reading unit: %
inhibition: -1.3
--
compound: c1ccc(-n2cccc2)c(N2CCCCC2)c1
reading unit: %
inhibition: -7.4
--
compound: Nc1ccccc1SC(C[N+](=O)[O-])c1ccccc1 (stereo unspecified)
reading unit: %
inhibition: 43.8
--
compound: CSCCC(NS(=O)(=O)c1ccc(C)cc1)C(=O)NCCc1c[nH]c2ccccc12 (stereo unspecified)
reading unit: %
inhibition: -6
--
compound: COc1ccc(C(C)(NC(C)=O)c2nc(-c3ccc(S(C)(=O)=O)cc3)cs2)cc1 (stereo unspecified)
reading unit: %
inhibition: 1.5
--
compound: O=C1C=CC(=O)N1c1ccc(N2CCCCC2)cc1
reading unit: %
inhibition: 74.7
--
compound: O=C(Nc1ccccc1)c1nnsc1S(=O)(=O)c1ccc(Cl)cc1
reading unit: %
inhibition: 96.4
--
compound: Cc1nn(C(C)CC(=O)O)c(C)c1C (stereo unspecified)
reading unit: %
inhibition: 3.3
--
compound: C=CCC1(C#N)C(=S)NC(C)=C(C(=O)OCC)C1c1ccccc1 (stereo unspecified)
reading unit: %
inhibition: -3.2
--
compound: O=C(c1ccc(Cl)c(S(=O)(=O)N2CCCCCC2)c1)N1CCN(c2ccc(O)cc2)CC1
reading unit: %
inhibition: -20.6
